Tested on: MDR1
protocol.text: Efflux ratio for apparent permeability in MDCK1 cells expressing MDR1
Format: ADME, cell-based, Canis lupus familiaris
experimental.context: dog, MDCK-MDR1
measured.endpoint: efflux ratio

C[C@@H]1CN(Cc2ccccc2)c2cncc(F)c2[C@H](C)N1C(=O)NCc1ccccc1 (racemic) ... 2.3

(P) C[C@@H]1CN(Cc2ccccc2)c2cncc(F)c2[C@H](C)N1C(=O)Nc1cccnc1 (racemic)
(Q) C[C@@H]1CN(Cc2ccccc2)c2cnccc2[C@H](C)N1C(=O)NCc1ccccc1 (racemic)
(R) COc1ccc(CNC(=O)N2[C@H](C)CN(CCC(C)C)c3cnccc3[C@@H]2C)cc1 (racemic)
(S) CC(C)CCN1C[C@@H](C)N(C(=O)Nc2cccnc2)[C@@H](C)c2ccncc21 (racemic)
Query: Put the entries in order of efflux ratio, starting with the largest number. Answer format: the labels, in the requested order.
Response: S, P, R, Q

###

experimental.target: Voltage-dependent T-type calcium channel subunit alpha-1G (Homo sapiens)
protocol.text: Channel blocking activity at recombinant human CaV 3.1 channel expressed in HEK293 cells assessed as inhibition of Ca2+ flux preincubated for 3 mins followed by CaCl2 addition by fluo-4 dye-based FLIPR assay
measured.endpoint: IC50 (nM)

C[C@@H]1CN(Cc2cnc(C(F)(F)F)s2)c2ccccc2[C@H](C)N1C(=O)NCc1ccccc1 (racemic) ... 13
C[C@@H]1CN(Cc2ccccc2)c2cncc(F)c2[C@H](C)N1C(=O)Nc1cccnc1 (racemic) ... 107

(I) C[C@@H]1CN(Cc2cnc(C(F)(F)F)s2)c2ccccc2[C@H](C)N1C(=O)CCc1cccnc1 (racemic)
(II) COc1ccc2c(c1)N(Cc1ccccc1)C[C@@H](C)N(C(=O)Nc1cccnc1)[C@H]2C (racemic)
Query: Lower value of IC50 belongs to which: I or II ? Write down the label attached to your selection.
Response: I
(I: 40 nM, II: 627 nM)

(a) C[C@@H]1CN(Cc2ccccc2)c2nc(Cl)ccc2[C@H](C)N1C(=O)NCc1ccccc1 (racemic)
(b) C[C@@H]1CN(Cc2ccccc2)c2cc(C#N)ccc2[C@H](C)N1C(=O)Nc1cccnc1 (racemic)
Query: Hi there! Just curious which has the higher IC50 between a and b . Write down the label attached to your selection.
Response: b

###

Tested on: MDR1
protocol.text: Apparent permeability from apical side to basolateral side in MDCK1 cells expressing MDR1
Format: ADME, cell-based, Canis lupus familiaris
experimental.context: dog, MDCK-MDR1
measured.endpoint: Papp A→B (nm/s)

(1) C[C@@H]1CN(Cc2ccccc2)c2cncc(F)c2[C@H](C)N1C(=O)NCc1ccccc1 (racemic)
(2) C[C@@H]1CN(Cc2ccccc2)c2cnccc2[C@H](C)N1C(=O)NCc1ccccc1 (racemic)
(3) CC(C)CCN1C[C@@H](C)N(C(=O)Nc2cccnc2)[C@@H](C)c2ccncc21 (racemic)
(4) COc1ccc(CNC(=O)N2[C@H](C)CN(CCC(C)C)c3cnccc3[C@@H]2C)cc1 (racemic)
(5) C[C@@H]1CN(Cc2ccccc2)c2cncc(F)c2[C@H](C)N1C(=O)Nc1cccnc1 (racemic)
Query: Put the entries in order of Papp A→B, starting with the largest number. Answer format: the labels, in the requested order.
Response: 1, 2, 4, 5, 3

###

protocol.text: Drug uptake in Wistar rat brain at 100 mg/kg, po after 1 hr by LC-MS/MS analysis
Type: ADME, organism-based
experimental.context: read-out: Drug uptake
measured.endpoint: concentration at 1 h (nM)
# value in nM; strip the unit string

So, C[C@@H]1CN(Cc2ccccc2)c2cnccc2[C@H](C)N1C(=O)NCc1ccccc1 (racemic) ? Its concentration at 1 h was 1600

###

experimental.target: Voltage-dependent T-type calcium channel subunit alpha-1H (Homo sapiens, UniProt O95180)
Sequence (O95180 whole entry): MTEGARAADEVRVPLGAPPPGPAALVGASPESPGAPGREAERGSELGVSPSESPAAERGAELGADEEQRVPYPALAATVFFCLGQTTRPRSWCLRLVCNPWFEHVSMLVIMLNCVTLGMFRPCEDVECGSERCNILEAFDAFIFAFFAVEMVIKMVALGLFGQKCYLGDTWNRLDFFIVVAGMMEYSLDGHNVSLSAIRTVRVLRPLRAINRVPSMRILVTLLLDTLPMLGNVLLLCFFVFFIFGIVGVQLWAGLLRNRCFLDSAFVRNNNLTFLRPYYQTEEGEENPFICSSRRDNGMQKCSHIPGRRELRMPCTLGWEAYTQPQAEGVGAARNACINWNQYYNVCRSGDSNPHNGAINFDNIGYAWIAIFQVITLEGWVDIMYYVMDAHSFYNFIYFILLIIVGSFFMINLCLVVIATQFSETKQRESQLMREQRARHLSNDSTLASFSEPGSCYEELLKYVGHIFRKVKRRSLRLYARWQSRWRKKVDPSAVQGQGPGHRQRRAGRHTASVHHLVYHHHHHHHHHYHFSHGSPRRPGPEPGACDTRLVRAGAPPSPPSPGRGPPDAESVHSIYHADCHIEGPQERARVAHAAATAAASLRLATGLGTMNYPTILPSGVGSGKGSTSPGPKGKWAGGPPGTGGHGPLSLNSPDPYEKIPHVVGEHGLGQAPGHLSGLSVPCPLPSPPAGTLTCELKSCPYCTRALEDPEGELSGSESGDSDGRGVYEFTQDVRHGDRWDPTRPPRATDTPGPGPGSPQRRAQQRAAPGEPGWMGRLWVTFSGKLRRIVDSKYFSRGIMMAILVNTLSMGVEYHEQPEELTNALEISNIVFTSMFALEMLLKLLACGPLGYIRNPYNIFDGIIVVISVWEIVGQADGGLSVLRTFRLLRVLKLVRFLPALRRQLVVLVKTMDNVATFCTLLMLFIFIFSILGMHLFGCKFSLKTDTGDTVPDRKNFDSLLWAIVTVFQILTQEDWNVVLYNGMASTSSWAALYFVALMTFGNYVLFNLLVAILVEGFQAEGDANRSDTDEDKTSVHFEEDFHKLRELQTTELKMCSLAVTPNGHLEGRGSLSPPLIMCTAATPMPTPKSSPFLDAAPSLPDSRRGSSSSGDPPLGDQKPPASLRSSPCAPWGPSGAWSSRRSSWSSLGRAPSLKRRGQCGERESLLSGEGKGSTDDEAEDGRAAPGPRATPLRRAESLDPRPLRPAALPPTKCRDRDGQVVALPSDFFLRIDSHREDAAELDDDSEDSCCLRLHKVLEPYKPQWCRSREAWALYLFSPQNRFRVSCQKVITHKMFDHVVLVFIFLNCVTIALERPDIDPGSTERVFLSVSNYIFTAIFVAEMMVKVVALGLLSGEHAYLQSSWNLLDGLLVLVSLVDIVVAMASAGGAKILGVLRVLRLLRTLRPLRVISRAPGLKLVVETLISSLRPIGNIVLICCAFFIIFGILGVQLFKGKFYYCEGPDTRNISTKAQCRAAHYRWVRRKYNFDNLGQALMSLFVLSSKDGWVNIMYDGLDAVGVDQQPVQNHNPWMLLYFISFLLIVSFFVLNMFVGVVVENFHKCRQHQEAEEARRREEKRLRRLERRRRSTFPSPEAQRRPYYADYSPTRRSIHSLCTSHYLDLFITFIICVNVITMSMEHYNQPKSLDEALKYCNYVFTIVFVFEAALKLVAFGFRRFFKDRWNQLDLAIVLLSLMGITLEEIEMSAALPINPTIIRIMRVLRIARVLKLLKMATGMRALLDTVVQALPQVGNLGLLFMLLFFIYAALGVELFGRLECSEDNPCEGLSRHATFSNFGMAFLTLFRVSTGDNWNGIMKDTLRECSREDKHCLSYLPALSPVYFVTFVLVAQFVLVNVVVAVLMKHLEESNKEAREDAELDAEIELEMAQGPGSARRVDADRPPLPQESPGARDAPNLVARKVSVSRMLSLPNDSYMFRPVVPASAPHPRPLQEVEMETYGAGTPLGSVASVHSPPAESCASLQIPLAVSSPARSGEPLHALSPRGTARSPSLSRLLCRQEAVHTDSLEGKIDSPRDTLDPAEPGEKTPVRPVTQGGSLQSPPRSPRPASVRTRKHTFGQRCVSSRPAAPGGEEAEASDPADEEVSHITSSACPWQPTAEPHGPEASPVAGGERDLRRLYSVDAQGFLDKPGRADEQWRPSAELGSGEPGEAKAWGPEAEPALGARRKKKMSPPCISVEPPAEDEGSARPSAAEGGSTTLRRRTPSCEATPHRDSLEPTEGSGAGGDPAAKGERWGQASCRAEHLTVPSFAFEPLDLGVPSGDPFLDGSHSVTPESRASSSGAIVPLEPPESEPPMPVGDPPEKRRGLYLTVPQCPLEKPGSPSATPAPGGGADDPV
protocol.text: Channel blocking activity at recombinant human CaV 3.2 channel expressed in HEK293 cells assessed as inhibition of Ca2+ flux preincubated for 3 mins followed by CaCl2 addition by fluo-4 dye-based FLIPR assay
measured.endpoint: IC50 (nM)

Recorded IC50, per entry:
COc1cccc2c1[C@H](C)N(C(=O)Nc1cccnc1)[C@H](C)CN2Cc1ccccc1 (racemic) ... 305
C[C@@H]1CN(Cc2ccccc2)c2c(F)cccc2[C@H](C)N1C(=O)Nc1cccnc1 (racemic) ... 205

(P) C[C@@H]1CN(Cc2ccccc2)c2cccc(F)c2[C@H](C)N1C(=O)NC1COC1 (racemic)
(Q) C[C@@H]1CN(Cc2cnc(C(F)(F)F)s2)c2ccccc2[C@H](C)N1C(=O)CCc1cccnc1 (racemic)
Query: Lower value of IC50 belongs to which: P or Q ? Write down the label attached to your selection.
Response: Q

(A) C[C@@H]1CN(Cc2ccccn2)c2ccccc2[C@H](C)N1C(=O)NCc1ccccc1 (racemic)
(B) C[C@@H]1CN(Cc2ccccc2)c2cc(F)cc(F)c2[C@H](C)N1C(=O)Nc1cccnc1 (racemic)
Query: Hi there! Just curious which has the higher IC50 between A and B . Write down the label attached to your selection.
Response: A
(A: 479 nM, B: 22 nM)

###

experimental.target: Voltage-dependent T-type calcium channel subunit alpha-1G (Homo sapiens)
protocol.text: Channel blocking activity at recombinant human CaV 3.1 channel expressed in HEK293 cells assessed as inhibition of Ca2+ flux preincubated for 3 mins followed by CaCl2 addition by fluo-4 dye-based FLIPR assay
measured.endpoint: IC50 (µM)

Recorded IC50, per entry:
C[C@@H]1CN(Cc2cccnc2F)c2ccccc2[C@H](C)N1C(=O)NCc1ccccc1 (racemic) ... 0.053
C[C@@H]1CN(C(=O)NCc2ccccc2)[C@@H](C)c2ccccc2N1Cc1ccccc1 (racemic) ... 0.211
C[C@@H]1CN(Cc2ccccc2)c2cnc(Cl)cc2[C@H](C)N1C(=O)NCc1ccccc1 (racemic) ... 0.22
C[C@@H]1c2ccccc2N(Cc2ccccc2)C[C@H](C)N1C(=O)NCc1ccccc1 ... 0.262

(1) C[C@@H]1C(=O)N(Cc2ccccc2)c2ccccc2[C@H](C)N1C(=O)NCc1ccccc1 (racemic)
(2) Cc1ccc2c(n1)N(Cc1ccccc1)C[C@@H](C)N(C(=O)NCc1ccccc1)[C@H]2C (racemic)
Query: Hi there! Just curious which has the higher IC50 between 1 and 2 . Write down the label attached to your selection.
Response: 1
(1: 0.304 µM, 2: 0.018 µM)

###

experimental.target: Voltage-dependent T-type calcium channel subunit alpha-1I (Homo sapiens, UniProt Q9P0X4)
Sequence (Q9P0X4 whole entry): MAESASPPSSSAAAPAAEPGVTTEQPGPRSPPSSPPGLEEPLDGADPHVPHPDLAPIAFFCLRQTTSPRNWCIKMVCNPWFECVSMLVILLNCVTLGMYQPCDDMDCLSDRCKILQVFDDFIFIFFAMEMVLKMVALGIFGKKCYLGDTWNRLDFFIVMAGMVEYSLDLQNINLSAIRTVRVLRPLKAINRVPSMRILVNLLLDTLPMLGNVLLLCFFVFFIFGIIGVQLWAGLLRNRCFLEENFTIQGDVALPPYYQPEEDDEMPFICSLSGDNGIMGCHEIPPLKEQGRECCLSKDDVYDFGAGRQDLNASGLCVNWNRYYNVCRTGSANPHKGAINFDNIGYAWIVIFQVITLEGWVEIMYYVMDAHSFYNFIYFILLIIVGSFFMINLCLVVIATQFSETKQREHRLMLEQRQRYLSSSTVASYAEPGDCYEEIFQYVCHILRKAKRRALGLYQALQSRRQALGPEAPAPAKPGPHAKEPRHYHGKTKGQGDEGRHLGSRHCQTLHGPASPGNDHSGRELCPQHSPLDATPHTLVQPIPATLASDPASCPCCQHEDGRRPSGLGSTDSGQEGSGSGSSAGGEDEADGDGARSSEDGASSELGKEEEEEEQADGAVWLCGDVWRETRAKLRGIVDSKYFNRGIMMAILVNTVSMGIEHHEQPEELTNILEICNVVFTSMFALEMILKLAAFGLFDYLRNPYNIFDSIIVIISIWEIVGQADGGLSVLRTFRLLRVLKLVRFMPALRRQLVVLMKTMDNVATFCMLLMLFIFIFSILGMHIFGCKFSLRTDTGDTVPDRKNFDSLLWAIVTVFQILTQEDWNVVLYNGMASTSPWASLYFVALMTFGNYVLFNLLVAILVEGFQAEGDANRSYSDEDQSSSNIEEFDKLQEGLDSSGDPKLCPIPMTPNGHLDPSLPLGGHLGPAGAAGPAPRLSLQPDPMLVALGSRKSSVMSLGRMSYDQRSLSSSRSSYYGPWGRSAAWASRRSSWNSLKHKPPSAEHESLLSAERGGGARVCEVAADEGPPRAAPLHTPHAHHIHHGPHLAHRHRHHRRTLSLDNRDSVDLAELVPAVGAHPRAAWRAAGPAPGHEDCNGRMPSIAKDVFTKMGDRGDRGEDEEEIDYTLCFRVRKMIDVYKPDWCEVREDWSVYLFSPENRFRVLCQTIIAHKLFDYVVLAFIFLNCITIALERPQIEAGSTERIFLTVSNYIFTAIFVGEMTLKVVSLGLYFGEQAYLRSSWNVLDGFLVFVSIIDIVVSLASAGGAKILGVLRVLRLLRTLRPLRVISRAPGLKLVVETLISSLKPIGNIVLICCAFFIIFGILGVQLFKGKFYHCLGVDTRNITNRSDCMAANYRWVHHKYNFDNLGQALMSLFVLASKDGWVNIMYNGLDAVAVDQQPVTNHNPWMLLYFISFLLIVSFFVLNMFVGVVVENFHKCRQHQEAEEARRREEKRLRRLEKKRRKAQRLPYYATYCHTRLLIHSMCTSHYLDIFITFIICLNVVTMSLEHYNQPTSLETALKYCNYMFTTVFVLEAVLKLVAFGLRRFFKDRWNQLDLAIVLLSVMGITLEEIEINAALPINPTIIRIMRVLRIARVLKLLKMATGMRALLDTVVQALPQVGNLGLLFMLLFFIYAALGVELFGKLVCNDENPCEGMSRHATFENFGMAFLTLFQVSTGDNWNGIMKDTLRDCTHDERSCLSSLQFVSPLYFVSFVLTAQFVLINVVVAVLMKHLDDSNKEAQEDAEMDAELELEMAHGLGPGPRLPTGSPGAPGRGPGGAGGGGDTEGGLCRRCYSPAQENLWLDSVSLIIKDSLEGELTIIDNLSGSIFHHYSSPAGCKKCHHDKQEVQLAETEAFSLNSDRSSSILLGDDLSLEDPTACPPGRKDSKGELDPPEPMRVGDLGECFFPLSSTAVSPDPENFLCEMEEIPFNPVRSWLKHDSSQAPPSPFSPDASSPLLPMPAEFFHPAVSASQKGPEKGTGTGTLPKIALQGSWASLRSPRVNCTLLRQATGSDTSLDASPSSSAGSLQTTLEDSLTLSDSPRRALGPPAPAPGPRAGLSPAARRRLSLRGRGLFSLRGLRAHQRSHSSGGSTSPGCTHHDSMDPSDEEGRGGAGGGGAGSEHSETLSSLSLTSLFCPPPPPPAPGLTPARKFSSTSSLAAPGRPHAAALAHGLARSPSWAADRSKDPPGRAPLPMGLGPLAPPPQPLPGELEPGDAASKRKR
protocol.text: Channel blocking activity at recombinant human CaV 3.3 channel expressed in HEK293 cells assessed as inhibition of Ca2+ flux preincubated for 3 mins followed by CaCl2 addition by fluo-4 dye-based FLIPR assay
pIC50: −log10 of the molar value.
measured.endpoint: pIC50

COc1ccc(CNC(=O)N2[C@H](C)CN(Cc3ccccc3)c3cnccc3[C@@H]2C)cc1 (racemic) ... 7.92

(A) C[C@@H]1CN(Cc2ccccc2)c2ccccc2[C@H](C)N1C(=O)CCc1cccnc1 (racemic)
(B) [2H]C([2H])(c1ccccc1)N1C[C@@H](C)N(C(=O)Nc2cccnc2)[C@@H](C)c2ccccc21 (racemic)
Query: Hi there! Just curious which has the higher pIC50 between A and B . Write down the label attached to your selection.
Response: B
(B: 8.40, A: 8.00)

###

protocol.text: Drug uptake in Wistar rat cerebrospinal fluid at 100 mg/kg, po after 1 hr by LC-MS/MS analysis
Assay type: ADME, organism-based
experimental.context: read-out: Drug uptake
measured.endpoint: concentration at 1 h (nM)
# value in nM; strip the unit string

So, C[C@@H]1CN(Cc2ccccc2)c2cnccc2[C@H](C)N1C(=O)NCc1ccccc1 (racemic) ? Its concentration at 1 h was 494

###

experimental.target: Voltage-dependent T-type calcium channel subunit alpha-1I (Homo sapiens)
protocol.text: Channel blocking activity at recombinant human CaV 3.3 channel expressed in HEK293 cells assessed as inhibition of Ca2+ flux preincubated for 3 mins followed by CaCl2 addition by fluo-4 dye-based FLIPR assay
pIC50: −log10 of the molar value.
measured.endpoint: pIC50

C[C@@H]1CN(Cc2ccccc2)c2cc(F)cc(F)c2[C@H](C)N1C(=O)Nc1cccnc1 (racemic) ... 8.10
C[C@@H]1CN(Cc2ccccc2)c2ccccc2[C@H](C)N1C(=O)N1CCOCC1 (racemic) ... 8.05
C[C@@H]1CN(Cc2ccccc2)c2ccccc2[C@H](C)N1C(=O)C1CCOCC1 (racemic) ... 8.10
C[C@@H]1CN(Cc2cnc(C(F)(F)F)s2)c2ccccc2[C@H](C)N1C(=O)Nc1cccnc1 (racemic) ... 7.48

(I) C[C@@H]1CN(CCOC(C)(C)C)c2ccccc2[C@H](C)N1C(=O)Nc1cccnc1 (racemic)
(II) COc1ccc(CNC(=O)N2[C@H](C)CN(Cc3ccccc3)c3ccccc3[C@@H]2C)cc1 (racemic)
(III) C[C@@H]1CN(Cc2ccccc2)c2nc(C(F)(F)F)ccc2[C@H](C)N1C(=O)NCc1ccccc1 (racemic)
Query: Put the entries in order of pIC50, starting with the largest number. Answer format: the labels, in the requested order.
Response: II, I, III
(II: 8.22, I: 7.64, III: 6.55)
